Answer each item with its documented inhibition.
target: Integrin beta-1 (Homo sapiens) + Integrin alpha-4 (Homo sapiens) (UniProt P13612+P05556); test: inhibition of HUTS-21 binding to VLA-4, pilot screen, VLA-4 allosteric modulator project, U937 cells, HUTS-21 mAb, flow cytometry, validation set (AID 2674); conditions: HUTS-21 LIBS mAb binding, at 6.7 µM, stronger effect = higher value, binding induced by LDV ligand;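 note: antibody binding induced by the VLA-4 ligand LDV present at three times its Kd; 0% = LDV ligand with antibody and no compound and 100% = antibody without LDV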
Sequence (P05556 whole entry, looked up): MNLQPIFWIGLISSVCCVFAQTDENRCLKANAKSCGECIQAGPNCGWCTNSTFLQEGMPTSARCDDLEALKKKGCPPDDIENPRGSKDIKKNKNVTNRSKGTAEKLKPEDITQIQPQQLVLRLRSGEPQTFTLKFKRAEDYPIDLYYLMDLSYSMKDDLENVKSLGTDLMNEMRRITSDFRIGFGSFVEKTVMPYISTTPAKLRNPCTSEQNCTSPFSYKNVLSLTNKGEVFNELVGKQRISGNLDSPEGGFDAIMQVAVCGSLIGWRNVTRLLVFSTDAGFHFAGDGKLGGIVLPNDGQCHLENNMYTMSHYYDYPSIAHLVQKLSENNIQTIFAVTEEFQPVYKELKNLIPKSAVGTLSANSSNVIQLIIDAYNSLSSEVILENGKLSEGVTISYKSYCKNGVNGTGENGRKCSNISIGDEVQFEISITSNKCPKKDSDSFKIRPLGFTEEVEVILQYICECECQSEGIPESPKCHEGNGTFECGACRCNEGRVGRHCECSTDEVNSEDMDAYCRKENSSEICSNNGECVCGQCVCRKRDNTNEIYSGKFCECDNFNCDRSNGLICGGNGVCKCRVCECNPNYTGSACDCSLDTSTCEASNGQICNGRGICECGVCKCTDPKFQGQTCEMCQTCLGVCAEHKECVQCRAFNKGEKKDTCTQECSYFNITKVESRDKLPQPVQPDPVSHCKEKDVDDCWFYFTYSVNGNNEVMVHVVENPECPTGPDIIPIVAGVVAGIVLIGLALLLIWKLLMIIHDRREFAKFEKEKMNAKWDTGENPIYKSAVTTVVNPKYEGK
Sequence (P13612 whole entry, looked up): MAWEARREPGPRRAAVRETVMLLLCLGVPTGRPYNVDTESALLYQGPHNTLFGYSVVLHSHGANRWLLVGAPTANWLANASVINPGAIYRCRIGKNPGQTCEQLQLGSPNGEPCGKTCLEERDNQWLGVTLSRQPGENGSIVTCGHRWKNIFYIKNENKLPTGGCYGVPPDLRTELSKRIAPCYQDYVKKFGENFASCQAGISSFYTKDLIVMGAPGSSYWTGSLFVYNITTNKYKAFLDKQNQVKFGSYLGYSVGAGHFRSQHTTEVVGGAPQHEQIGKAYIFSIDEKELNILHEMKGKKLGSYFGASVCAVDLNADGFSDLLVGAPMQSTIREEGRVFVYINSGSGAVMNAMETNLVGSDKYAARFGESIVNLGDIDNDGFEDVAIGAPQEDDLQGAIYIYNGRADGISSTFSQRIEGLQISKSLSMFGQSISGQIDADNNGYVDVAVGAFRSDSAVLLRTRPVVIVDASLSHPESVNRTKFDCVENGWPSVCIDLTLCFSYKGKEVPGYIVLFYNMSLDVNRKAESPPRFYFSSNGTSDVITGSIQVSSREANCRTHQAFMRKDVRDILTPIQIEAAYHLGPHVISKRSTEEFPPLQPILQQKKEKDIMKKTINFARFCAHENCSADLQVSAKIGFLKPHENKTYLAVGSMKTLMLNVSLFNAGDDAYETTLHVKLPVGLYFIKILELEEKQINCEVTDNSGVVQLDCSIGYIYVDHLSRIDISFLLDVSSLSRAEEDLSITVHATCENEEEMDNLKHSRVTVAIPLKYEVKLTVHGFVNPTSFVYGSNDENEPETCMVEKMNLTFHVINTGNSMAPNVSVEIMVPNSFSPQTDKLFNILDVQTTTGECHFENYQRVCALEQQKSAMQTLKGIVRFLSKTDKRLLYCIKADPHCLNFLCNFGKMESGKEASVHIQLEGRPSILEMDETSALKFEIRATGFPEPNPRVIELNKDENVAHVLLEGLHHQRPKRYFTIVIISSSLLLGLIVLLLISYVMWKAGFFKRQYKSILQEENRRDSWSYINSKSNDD
Numbers only, in %.

• O=[N+]([O-])c1cc(/C=N/n2cnnc2)ccc1N1CCCC1 = 10.9
• CC[N+](C)(CC)CCOC(=O)C(O)(c1ccccc1)C1CCCCC1 (centres undefined) = -32.9
• O=c1[nH]c(=O)n([C@H]2C[C@H](O)[C@@H](CO)O2)cc1F = 4.52

Now for another entry.
Ask | Given the compound `COc1ccc2oc(=O)c(-c3nc(C)cs3)cc2c1` , what is its reported inhibition?
Reply | 9.09

====

test: LAP4-GFP expression modulators in yeast, confirmation, cell-based, cherry picks, flow cytometry, mother/daughter gates (AID 2271);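 note: ratio of sample to DMSO plate mean so 100% equals DMSO level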; details: S. cerevisiae LAP4-GFP strain, 3 h, measured here: daughter cell gate response, at 10 µM, stronger effect = higher value, 100 means same as DMSO control
So I've got a bunch of compounds here, and I need their GFP response relative to DMSO values.
Numbers only, in %.

Before answering, review these 3 worked examples.
• CC1=NOC(=O)/C1=C\c1ccc(-c2cc(Cl)ccc2Cl)o1 = 176
• CS(=O)(=O)Nc1cccc(C2=NN(S(C)(=O)=O)C(c3ccc4c(c3)OCO4)C2)c1 (stereo not given) = 99.2
• COc1cc(NC(=O)c2cccc([N+](=O)[O-])c2)ccc1NC(=O)c1cc2ccccc2o1 = 98.2

For each listed entry, give its GFP response relative to DMSO.
1. CCC(C)(C)n1nnnc1C(c1ccc(O)c(OC)c1)N1CCc2ccccc2C1 (stereo not given)
2. O=[N+]([O-])/C=C/c1cn(Cc2ccccc2)c2ccccc12

Reply |
99.3
131

====

test: modulators of CIT2-GFP expression in yeast, confirmation, S. cerevisiae, GFP fusion, cherry picks, mother/daughter gates (AID 2274); conditions: S. cerevisiae CIT2-GFP strain, flow cytometry, 3 h; at 10 µM
Active and inactive are the calls of the source.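 Rule for the calls: active = GFP response above 150% of the DMSO level; inconclusive = fewer than 70 events counted for a yeast strain; inactive = the rest.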
Bench note: report the call from label 1 for active, label 0 for inactive

Answered examples (3):
- COC(CNC(=O)c1ccc2c3c(onc13)-c1ccccc1C2=O)OC: label 0
- COc1ccc(-c2[nH]ncc2-c2ccc(Cl)cc2)c(O)c1: label 0
- CC(C)(C)n1nc(-c2ccc(Cl)cc2)c2c(N)ncnc21: label 0

Ask | Any idea what this test logged for `CCOc1ccc(/C=C2\N=C(c3cccs3)OC2=O)cc1OC` ?
Reply | label 0

Ask | Field: outcome | Entry: `Cc1nn2c(NCCCN3CCOCC3)c3c(nc2c1-c1ccccc1)CCC3`
Reply | label 0

Ask | Please indicate how the test categorized `O=C1Nc2ccc(Br)cc2/C1=C/C(=O)c1ccc2c(c1)OCO2` .
Reply | label 0

Ask | How was `C/C(=N/NC(=O)c1ccc(C(C)(C)C)cc1)c1ccccn1` classified in this test?
Reply | label 0

Ask | Given `COc1ccc(CN2CCN(c3ncccn3)CC2)c(C)c1C` , state the outcome it received in this test.
Reply | label 0

Ask | Please indicate how the test categorized `COc1ccc(CCN2C(=O)c3cccc4cccc(c34)C2=O)cc1OC` .
Reply | label 0

Ask | Record request — test call for `O=C(NCc1ccc2c(c1)OCO2)c1nc(S(=O)(=O)Cc2ccccc2)ncc1Cl`
Reply | label 0

Ask | For `Cn1cc(/C=C/c2cc[n+](C)cc2)c2cc(F)ccc21` , what call appears in the results of this test?
Reply | label 0

Ask | What did the test return for `N/C(Cc1ccc(Cl)c(Cl)c1)=N\OC(=O)c1cccs1` ?
Reply | label 1

Ask | Lab log entry: `Cc1c(Br)cc(C(=O)O)c(C)c1C` — outcome as called in the assay?
Reply | label 0

====

test: modulators of CIT2-GFP expression in yeast, confirmation, S. cerevisiae, GFP fusion, cherry picks, mother/daughter gates (AID 2274); conditions: S. cerevisiae CIT2-GFP strain, flow cytometry, 3 h; measured here: daughter cell gate; at 10 µM; stronger effect = higher value
assay metric: GFP response, % of DMSO (%)
Answers are plain numbers, in %.

• COc1ccc(N=Cc2cc(Cc3ccccc3Cl)cc([N+](=O)[O-])c2O)cc1OC = 86.7

Fill in GFP response, % of DMSO for each of the 8 compounds listed.
1. O=C(O)c1ccccc1SC1CC(=O)N(c2ccc3c(c2)OCO3)C1=O (stereo not drawn)
2. Cc1c(N2C(=O)/C(=C\c3ccccc3O)SC2=S)c(=O)n(-c2ccccc2)n1C
3. O=C1c2cccc3cccc(c23)C(=O)N1c1ccncc1
4. Cc1cc(=O)[nH]c(-n2nc(C)cc2C)n1
5. O=C(CSc1ccc(Cl)cc1)Nc1cccc(-c2nc3ccccc3[nH]2)c1
6. O=C1c2cccc3cccc(c23)C(=O)N1c1cccnc1
7. CC(C)c1ccc2c(c1)C1(NN=C(c3ccccc3)S1)C(=O)N2 (stereo not drawn)
8. O=S(=O)(c1ccc(Oc2ccc(Br)cc2)cc1)N1CCOCC1

Reply |
99.3
109
106
97.4
96.4
105
96.5
96.4

Hi there! I need GFP response, % of DMSO for each item below, if you can.
1. CS(=O)(=O)N1N=C(c2ccc3nccnc3c2)CC1c1ccccc1 (stereo not drawn)
2. O=C(COc1ccccc1)Nc1c2c(nn1-c1ccccc1)CS(=O)C2 (stereo not drawn)
3. Cc1ccc(S(=O)(=O)c2ncccc2[N+](=O)[O-])cc1

Reply |
1. 103
2. 97.6
3. 97.4

Batch of 3 compounds: report GFP response, % of DMSO for each.
1. O=C(Nc1c2c(nn1-c1ccccc1)CS(=O)C2)c1ccco1 (stereo not drawn)
2. CN1CCN(C(=O)CC2C(=O)NCCN2Cc2ccc(-c3ccccc3)cc2)CC1 (stereo not drawn)
3. COc1ccc(NC(=O)C2C3C=CC(C3)C2C(=O)NCc2ccco2)c(OC)c1 (stereo not drawn)

Reply |
99.3
100
95.8

====

experiment: RPL19A-GFP modulators, yeast TOR pathway, confirmation, cell-based, S. cerevisiae, flow cytometry, cherry picks, mother/daughter gates (AID 2270); details: S. cerevisiae RPL19A-GFP strain, 3 h, at 10 µM, stronger effect = lower value, 100 = same GFP as DMSO wells
assay metric: GFP response vs DMSO (%)
Answers are plain numbers, in %.

These solved cases illustrate the format of a correct answer.
- c1ccc2oc(SCc3nc4ccccc4s3)nc2c1: 99
- CC(C)c1ccc2c(c1)C1(NN=C(c3ccccc3)S1)C(=O)N2 (centres undefined): 105
- COc1ccccc1-c1nnc(NC(=O)c2ccc(S(=O)(=O)N3CCCC3)cc2)o1: 102
- O=C(c1cccc2ccccc12)N1CCN(c2ccccc2F)CC1: 97.8
- COc1ccc(N2C(=O)C(Cl)=C(Nc3c(C)n(C)n(-c4ccccc4)c3=O)C2=O)cc1: 102
- Cc1[nH]n(-c2ccccc2)c(=O)c1/C=N/Nc1nncc(-c2ccccc2)n1: 88.1

For every listed record, write down its GFP response vs DMSO.
1. Cc1ccc(/C=C2/C(=O)ON=C2c2ccccc2)o1
2. Oc1ccc(-c2nc3ccccn3c2NCc2ccco2)cc1
3. Cc1nnc(N2C(=O)c3cccc4cccc(c34)C2=O)s1
4. O=C(Nc1nc(-c2ccc(Cl)cc2)cs1)c1cccnc1
5. COc1ccccc1-c1noc(-c2cc(OC)c(OC)c(OC)c2)n1
6. CCNC(=O)/C(C#N)=C/c1c(N2CCOCC2)nc2ccccn2c1=O
7. Cc1noc2ncnc(Sc3ccccc3Cl)c12

Reply |
[90.4, 96.8, 94.9, 96.8, 97.2, 96.9, 106]

List the reported GFP response vs DMSO of each molecule below.
1. O=C(Nc1nnc(-c2ccccc2Cl)o1)c1ccc(S(=O)(=O)N2CCCCCC2)cc1
2. COc1ccc(C(c2c(C)[nH]n(C(N)=S)c2=O)C(C#N)C#N)cc1 (centres undefined)
3. Cc1nc(Sc2ccc(Br)cc2)c(C#N)c(C)c1[N+](=O)[O-]
4. CCc1c2ccccc2nn1-c1ccccc1C(=O)C(C)=O
5. COc1ccccc1C(=O)N1CCN(c2cccc(C(F)(F)F)c2)CC1
6. CCCc1cc(N2CCN(c3ccccn3)CC2)n2nc(C)c(-c3ccccc3)c2n1

Reply |
[100, 105, 106, 95.8, 96.2, 104]

====

test: modulators of MEP2-GFP levels in yeast, confirmation, S. cerevisiae, flow cytometry GFP, cherry picks (AID 2272);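 note: ratio of well signal to plate DMSO mean so 100% equals DMSO level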; details: S. cerevisiae MEP2-GFP strain, 3 h, at 10 µM, stronger effect = higher value
assay metric: GFP response vs DMSO (%)
Answers are plain numbers, in %.

Take a look at these entries with their results.
* COc1cccc(-c2nnc(NC(=O)c3ccc(S(=O)(=O)N4CC(C)OC(C)C4)cc3)o2)c1 (centres undefined) | 109
* Cc1cc(C)nc(S/C=C/C(=O)c2ccccc2)n1 | 121
* COc1ccc(OC(=O)c2cc(S(=O)(=O)N3CCCC3)ccc2Cl)cc1 | 98.3

Ask | Which GFP response vs DMSO value belongs to `COCc1nnc(NC(=O)c2ccc(S(=O)(=O)N(C)C3CCCCC3)cc2)o1` ?
Reply | 102
